These entries and their values trace back to patent US12195427B2.

Biological target: MASP-2 CCP2-SP (Homo sapiens (Human))
Sequence (O00187 445-686): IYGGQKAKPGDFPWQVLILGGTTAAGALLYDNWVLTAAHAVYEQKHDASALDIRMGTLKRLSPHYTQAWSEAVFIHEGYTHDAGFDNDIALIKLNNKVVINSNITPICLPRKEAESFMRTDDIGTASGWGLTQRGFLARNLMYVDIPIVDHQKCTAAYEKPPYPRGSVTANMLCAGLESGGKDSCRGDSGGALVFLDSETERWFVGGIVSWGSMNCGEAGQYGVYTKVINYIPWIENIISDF
Sequence (O00187 364-432 partner): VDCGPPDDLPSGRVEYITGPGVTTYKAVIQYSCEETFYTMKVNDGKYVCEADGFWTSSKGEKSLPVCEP
Assay: MASP-2 co-crystallization, X-ray crystallography and structure analysis (H-bonds, van der Waals contacts)
Conditions: Table A7-2; between pharmacophore elements of the bound compound
Structures can show the parent of a compound that is named as a salt.
readout: Pharmacophore torsion angle a(O1, O2, N2, C6)
Please state the value as a number alone, without comment.

Give its Pharmacophore torsion angle a(O1, O2, N2, C6) value. Item: Cc1nc(N)ccc1CNC(=O)[C@H](C)NC(=O)[C@H]1C[C@H](Cc2ccccc2Br)CN1.O=C(O)C(F)(F)F.O=C(O)C(F)(F)F
141.41

Try this molecule too: C[C@H](NC(=O)[C@H](N)CCc1cc(Cl)cc(Cl)c1)C(=O)NCc1ccc(C(=N)N)cc1
150.07

Try this molecule too: Cc1cccc([C@H]2CN[C@@H](C(=O)N[C@@H](C)C(=O)NCc3ccc(N)nc3C)C2)c1 [compound 1257, Dihydrochloride]
146.13

Try this molecule too: Cc1nc(N)ccc1CNC(=O)[C@H](C)NC(=O)[C@H]1C[C@H](Cc2cc(Cl)cc(Cl)c2)CN1 [compound 1435, Dihydrochloride]
137.30
